protocol: ATG_NRF2_ARE_CIS: Attagene CIS-FACTORIAL HepG2 Assay for human Nuclear Factor Erythroid 2 Related Factor 2 (NFR2) response to Antioxidant Response Elements (ARE) (AID 2282992);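 for AC50: reporter mRNA level measured by RT-PCR and capillary electrophoresis fluorescence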
condition-notes: HepG2 Attagene ARE/NRF2 reporter, transcription factor activity; actives raise or lower the signal
Procedure: ATG_CIS is a cell-based, multiplexed-readout assay that uses HepG2, a human liver cell line, with measurements taken at 24 hours after chemical dosing in a 24-well plate.ATG_NRF2_ARE_CIS is one of 52 assay component(s) measured or calculated from the ATG_CIS assay. […] This assay endpoint, ATG_NRF2_ARE_CIS, was analyzed with bidirectional fitting relative to DMSO as the negative control and baseline of activity. […]
Calls of active or inactive are those of the source. Rule for the calls: active = hit-call score of the fitted dose curve at least 0.9, where 1 is the maximum; inactive = score below 0.9.
quantity-kind: AC50

Worked examples, 6 compounds total:
compound	result
CC(C=O)Cc1ccc(C(C)(C)C)cc1 (stereo not drawn)	26.4 µM (active)
C#CC(C)N(C)C(=O)Nc1ccc(Cl)cc1 (stereo not drawn)	48.4 µM (active)
NC1CCCCC1N (stereo not drawn)	inactive
CC(=O)c1ccccn1	inactive
COC(C)(C)CC(C)=O	inactive
C=CCCC(=O)/C=C/C1C(C)=CCCC1(C)C (stereo not drawn)	110 µM (active)

Req: For O=C(CS)OCCOC(=O)CS , what is its reported AC50?
Resp: 148 µM (active)

Req: Now consider CC(C)=CCCC(C)CCOC=O (stereo not drawn) and answer again.
Resp: inactive
